Tested on: IL-21
Measurement protocol: Human TH17 Cytokine Inhibition as measured by ELISA (IL-21)
Assay type: cell-based
Protocol conditions: 72 h; human CD4+ T cells under TH17-polarizing conditions, 3 days, supernatant ELISA
Measurement kind: IC50

Looking for the measured IC50 of Cc1cc2cc(-c3cn[nH]c3)ccc2n1CC1CCN(C(=O)CCc2ccccc2)CC1 [Example 132] , can you help?
< 10 µM

Entry Cc1cc2cc(-c3cn[nH]c3)ccc2n1CC1CCN(C(=O)Cc2ccccc2)CC1 [Example 133] : reported IC50 = ?
< 10 µM

Can you look up the measured IC50 of O=C(NCc1ccccc1)N1CCC(CN2CCc3cc(-c4cn[nH]c4)ccc32)CC1 [Example 76] for me?
< 10 µM
